From: the supplement of paper PMC9732359

Test: protein stability index of a GFP-peptide fusion (yeast GPS) (PSI 1-4); higher = more stable; sorted into four equal gates, so the index is relative within each strain
Conditions: san1∆
test readout: protein stability index

ETQVEVEKNEIGKMYDE [NNF1]
2.98
DNVSKNALDKLRNNLNS [YCG1]
2.24
YPVHEAHKGQIVLIKGI [SNU114]
1.37
FNPQDTEENIKGETNSE [RRP45]
3.22
ILEEGSSGMGAFGGSGG [RPN10]
3.04

Prompt line: State its protein stability index for this sequence: KSDDDDHTVDEIDHVEY [SRB8]
Response line: 2.98

Prompt line: State its protein stability index for this sequence: KSKERSSQFVRLASEPG [YMR129W/POM152]
Response line: 3.16

###

Test: protein stability index of a GFP-peptide fusion (yeast GPS) (PSI 1-4); higher = more stable; sorted into four equal gates, so the index is relative within each strain
Settings: pdr5∆
Reported protein stability index values for a set of sequences
Give your answer as a number; write no unit.

Consider the following illustrative entries.
SAESWGTGRAVARIPRV [RPL4A]
3.51
VMPVPNVRSSVLQKVIE [SKP1]
2.43
TEYGRKYNVNISALTQT [PRP8]
2.53
TQSGGVRPFGVSTLIAG [PRE6]
1.72
VNDNDERAARVVKGRVE [RPO31]
3.36
DEEASYKLGKVKKVQLG [RPS4A]
3.1

Here's the next entry for you.
Prompt line: State its protein stability index for this sequence: NYSSESYRNAFTNVLTK [YJL039C/NUP192]
Response line: 2.38

###

Assay: protein stability index of a GFP-peptide fusion (yeast GPS) (PSI 1-4); higher = more stable; sorted into four equal gates, so the index is relative within each strain
Conditions: san1∆
Give TRUE when the value for protein stability index is at least 2. Give FALSE when it is less.

Please review the following examples before continuing.
ERSYPSEFANQNQGGAQ [ROX3]
TRUE
LANFVAKGFYHTPMVNF [SRB8]
FALSE
KNEPDYSKAKYPDLQPF [CDC53]
TRUE

Prompt line: // inclusive: protein stability index at least 2? input: FGRKNDRQCMIMDELLS [DIB1]
Response line: TRUE

Prompt line: // inclusive: protein stability index at least 2? input: EGIEKMGVRTFSQKEMA [FAS2]
Response line: TRUE

Prompt line: // inclusive: protein stability index at least 2? input: FTKPPANETDKRPTPPS [YOR098C/NUP1]
Response line: TRUE

Prompt line: // inclusive: protein stability index at least 2? input: QALRVLRLKPGRKYTTL [RPL16B]
Response line: TRUE

Prompt line: // inclusive: protein stability index at least 2? input: QVKKPRKQRVKKKTKKE [SWI1]
Response line: TRUE

Prompt line: // inclusive: protein stability index at least 2? input: VLSIPPANHLQSDFCLS [YGL100W/SEH1]
Response line: TRUE

Prompt line: // inclusive: protein stability index at least 2? input: LDPINLPLDSQDDEYVK [PRP8]
Response line: TRUE

###

Test: protein stability index of a GFP-peptide fusion (yeast GPS) (PSI 1-4); higher = more stable; sorted into four equal gates, so the index is relative within each strain
Settings: pdr5∆
Reported protein stability index values for a set of sequences
Give your answer as a number; write no unit.

LQDDEDHKFPIRENKVT [BRN1]
3.07
ESTAGSASTSATGISGS [ECM29]
3.35
DEFPSELSDSDRQIINE [SIR4]
3.24
SDSETNHKSKDNNNGDD [SKP1]
3.17

Prompt line: State its protein stability index for this sequence: NLVKEKEALQNNIFKEF [SMC1]
Response line: 3.06

Prompt line: State its protein stability index for this sequence: AGLDKGISINNMMEHWD [RPO31]
Response line: 3.09

Prompt line: State its protein stability index for this sequence: SGRNIHLAVVCVDDNSK [SSN2]
Response line: 1.61

Prompt line: State its protein stability index for this sequence: GINSPLSSVALRSDFYI [YJL039C/NUP192]
Response line: 2.78

Prompt line: State its protein stability index for this sequence: MTLEDNNVTSNPSEFTP [SSN2]
Response line: 3.03

Prompt line: State its protein stability index for this sequence: TLPGDDELDQEILNLST [RPT5]
Response line: 3.27

Prompt line: State its protein stability index for this sequence: PKGATYGKPTNQGVNEL [RPL15A]
Response line: 3.22

Prompt line: State its protein stability index for this sequence: FLDSMAQKYASIVGVDL [FAS2]
Response line: 2.29

Prompt line: State its protein stability index for this sequence: NTLIPESSLTISLYFND [ECM29]
Response line: 2.19

Prompt line: State its protein stability index for this sequence: TEDRYNEYVAKVSAREK [FAS2]
Response line: 3.14

Prompt line: State its protein stability index for this sequence: GGNSTQNTSNMNAGGLF [YGR119C/NUP57]
Response line: 3.15

Prompt line: State its protein stability index for this sequence: PLAPAPINLPPQIAQLP [SNF5]
Response line: 2.09

Prompt line: State its protein stability index for this sequence: GLKRSQLDEFKNKYLKD [SWP82]
Response line: 2.89

Prompt line: State its protein stability index for this sequence: DLTQLLEKERSILDDIK [SMC4]
Response line: 2.98

Prompt line: State its protein stability index for this sequence: TFFPRCIIAVSCTLLER [POP1]
Response line: 1.36

Prompt line: State its protein stability index for this sequence: GGFTAYGGADYGEATSP [RPO21]
Response line: 1.9

Prompt line: State its protein stability index for this sequence: NPNPSSQRAQVVTMSVK [RPC37]
Response line: 2.83

Prompt line: State its protein stability index for this sequence: SILEHSGIRLIEPELFN [FAS2]
Response line: 2.99

Prompt line: State its protein stability index for this sequence: GKGDNDNGLGPLKYAPH [SWI3]
Response line: 3.39

Prompt line: State its protein stability index for this sequence: PSTGSNLQQQQQQQIQV [YGR119C/NUP57]
Response line: 2.55

Prompt line: State its protein stability index for this sequence: YNSVAEAKKFEPTYRLV [RPS24A]
Response line: 2.95

Prompt line: State its protein stability index for this sequence: GIFGMDFYVVMNRPGAR [RPL11A]
Response line: 1.71

###

Reported protein stability index values for a set of sequences
Test: protein stability index of a GFP-peptide fusion (yeast GPS) (PSI 1-4); higher = more stable; sorted into four equal gates, so the index is relative within each strain
Details: doa10∆
Give your answer as a number; write no unit.

Consider the following illustrative entries.
VHMYHKSLALLGYNFDG [SNF5]
2.26
RHGFNRSNTGALMRCSF [RPO21]
2.71

Prompt line: State its protein stability index for this sequence: TKNIPITHRDLHYDKDY [SSN8]
Response line: 2.65

Prompt line: State its protein stability index for this sequence: VLFITPDIVGHEFTLSF [BRR2]
Response line: 1.87

Prompt line: State its protein stability index for this sequence: TIGGGLFGNKPTTTTGG [YGR119C/NUP57]
Response line: 3

Prompt line: State its protein stability index for this sequence: NEAALVVNITHHELVPK [RPB5]
Response line: 2.93

Prompt line: State its protein stability index for this sequence: HASFLCSFITQDKMFVS [FAS1]
Response line: 2.01

Prompt line: State its protein stability index for this sequence: IHGVLKNVDREVVSEAI [FAS2]
Response line: 3.19

###

Reported protein stability index values for a set of sequences
Assay: protein stability index of a GFP-peptide fusion (yeast GPS) (PSI 1-4); higher = more stable; sorted into four equal gates, so the index is relative within each strain
Settings: pdr5∆
Give your answer as a number; write no unit.

IFFDEIDAVGGARFDDG [RPT1]
2.77
SIWQVKDQLPDLESMGL [MED7]
3.04
KRNGDEVYTLVDSQGLP [ARP7]
3.34
NNIDQSLILKESGSTPI [YAR002W/NUP60]
1.78

Prompt line: State its protein stability index for this sequence: QDLPKINDKRANLMLVM [SRB4]
Response line: 1.88

Prompt line: State its protein stability index for this sequence: LIKKPLTVFYAIKKFKT [SSN3]
Response line: 1.56

###

Experiment: protein stability index of a GFP-peptide fusion (yeast GPS) (PSI 1-4); higher = more stable; sorted into four equal gates, so the index is relative within each strain
Details: pdr5∆
Give satisfied when the value for protein stability index is at least 2. Give not satisfied when it is less.

Please review the following examples before continuing.
TPISNEQTEGEPKKKRG [SRP68]
satisfied
PLKFKLGPLSYQNMAFI [YJR042W/NUP85]
satisfied
HASFLCSFITQDKMFVS [FAS1]
not satisfied
NEKRYATASAIAATAVA [RPL4A]
not satisfied
DDYILSGESVMDRDSES [SRB4]
satisfied

Prompt line: // inclusive: protein stability index at least 2? input: VTQQKRSLDENRLEIKY [SMC1]
Response line: satisfied

Prompt line: // inclusive: protein stability index at least 2? input: ASRNVWSFYNGNVLIND [SNU114]
Response line: satisfied

Prompt line: // inclusive: protein stability index at least 2? input: MAAQKSFRIKQKMAKAK [RPL39]
Response line: satisfied

Prompt line: // inclusive: protein stability index at least 2? input: QRRYVIKEKVQFNATIN [ITC1]
Response line: not satisfied

Prompt line: // inclusive: protein stability index at least 2? input: NKGWKLQSLNESKDLLR [SRB4]
Response line: satisfied

Prompt line: // inclusive: protein stability index at least 2? input: NEAALVVNITHHELVPK [RPB5]
Response line: satisfied

Prompt line: // inclusive: protein stability index at least 2? input: NWRRLSGRNIHLAVVCV [SSN2]
Response line: not satisfied

Prompt line: // inclusive: protein stability index at least 2? input: SLLLTNVIITGSTSLIE [ARP7]
Response line: not satisfied
